This collection of values is drawn from ChEMBL document CHEMBL2163219.

Experiment notes: Displacement of [125I]-BNtxA from Mu-type opioid receptor exon 11-associated truncated six transmembrane domain splice variant in mouse brain membranes after 90 mins
Assay type: cell membranes, Membrane
Known Ki of a selection of compounds
Hi! Could you send only the number? It should be in nM, unit omitted.

# annotated cases, reported Ki shown
Molecular string: C=CCN1CC[C@]23c4c5ccc(O)c4O[C@H]2[C@H](NC(=O)c2cccc(C)c2)CC[C@@]3(O)[C@H]1C5
Ki (nM): 8.98
//
Molecular string: C=CCN1CC[C@]23c4c5ccc(O)c4O[C@H]2[C@H](NC(=O)c2cccc(C(F)(F)F)c2)CC[C@@]3(O)[C@H]1C5
Ki (nM): 9.32

Now let's try a different one.
Req: Requested read-out: Ki. Entry: C=CCN1CC[C@]23c4c5ccc(O)c4O[C@H]2[C@H](NC(=O)c2cccc(Br)c2)CC[C@@]3(O)[C@H]1C5
Resp: 2.05
